Cited source: the supplement of paper PMC6757056

B1: library; a variant is named by its letters at N, in order (parent)
chain: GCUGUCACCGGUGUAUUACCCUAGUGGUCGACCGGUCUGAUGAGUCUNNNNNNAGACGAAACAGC

- Variants of: B1
- ASSAY_SUMMARY: FACS-Seq fitted mean relative fluorescence mCherry/BFP without ligand (log10 relative fluorescence); ligand: hypoxanthine (xanthine aptamer); higher = higher reporter protein expression
- ASSAY_CONTEXT: HEK293T, ligand present: no
Assign FACS-Seq fitted mean (log10) to each entry below.
No unit in the answer, please; the number alone is enough.

FACS-Seq fitted mean (log10) recorded for this variant, ACGUGU , is 0.135

# FACS-Seq fitted mean (log10) (variant: AACGUA ) is 0.494

// sample GCAUAA , its FACS-Seq fitted mean (log10) was 0.705

Per the record, AUCGCC has FACS-Seq fitted mean (log10) of 0.477

get_value(item= AAAGAA , readout=FACS-Seq fitted mean (log10)) returns 0.0245

Measured FACS-Seq fitted mean (log10), UAAGAA : 0.349

FACS-Seq fitted mean (log10) reading for ACCAGU : -0.346

variant ACUCAU , FACS-Seq fitted mean (log10) observed: 0.604

Form: variant = UGUGAC ; FACS-Seq fitted mean (log10) = 0.481

GAUUAA yielded FACS-Seq fitted mean (log10) of 0.276

// field: FACS-Seq fitted mean (log10); key: GGCCUG ; value = 0.145
